System: P. aeruginosa ATCC 27853
Experiment: microbe, parasite or virus in culture
Type: cell-based
Settings: Pseudomonas aeruginosa, ATCC27853, read-out: MIC P. aeruginosa ATCC 27853
In this section we review reported MIC values for a set of molecules.

The examples below pair each entry with its known result.
CS(=O)(=O)N1CCN(C(=O)NC(C(=O)N[C@H]2Cc3cccc(C(=O)O)c3OB2O)c2ccc(P(=O)(O)O)c(O)c2)C1=O (stereo partly shown)	32 to 64 mg/L
CN1CCN(C(=O)NC(C(=O)N[C@H]2Cc3cccc(C(=O)O)c3OB2O)c2ccc(P(=O)(O)O)cc2)C1=O (stereo partly shown)	> 128 mg/L
O=C(O)c1cccc2c1OB(O)[C@@H](NC(=O)[C@H](NC(=O)c1c[nH]ccc1=O)c1ccc(P(=O)(O)O)cc1)C2	32 to 64 mg/L

The record that follows has no MIC shown yet.
If you can, please state the reported MIC value of O=C(O)c1cccc2c1OB(O)[C@@H](NC(=O)C(NC(=O)C1CC1)c1ccc(P(=O)(O)O)cc1)C2 (stereo partly shown) .
> 128 mg/L
